- ASSAY TARGET: human GcgR (Homo sapiens)
- Sequence (P47871 26-477): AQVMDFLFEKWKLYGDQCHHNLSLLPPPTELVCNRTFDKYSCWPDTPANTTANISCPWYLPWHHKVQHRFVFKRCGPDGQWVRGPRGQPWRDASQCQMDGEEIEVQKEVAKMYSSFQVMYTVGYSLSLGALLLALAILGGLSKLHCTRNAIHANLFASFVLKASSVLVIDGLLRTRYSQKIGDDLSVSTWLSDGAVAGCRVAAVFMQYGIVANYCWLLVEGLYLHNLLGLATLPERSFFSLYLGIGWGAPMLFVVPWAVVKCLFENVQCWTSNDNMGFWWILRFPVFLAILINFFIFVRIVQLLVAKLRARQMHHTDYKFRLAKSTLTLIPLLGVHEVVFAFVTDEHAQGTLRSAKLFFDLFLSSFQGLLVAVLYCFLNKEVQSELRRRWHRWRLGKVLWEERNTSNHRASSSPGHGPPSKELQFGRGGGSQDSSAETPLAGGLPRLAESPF
- METHOD: Functional cAMP activity in the presence of 1% HSA
- Type: cell-based
- RECORDED CONDITIONS: read-out: cAMP Rel EC50, hGcgR
pEC50: −log10 of the molar value. Starred links: 1 amine or outer side, 2 acyl side, 3 side chain; linkers in the order of their positions; H or OH if unused. Non-standard residues stand in square brackets, D forms with d. Groups on a side chain read outwards from the residue. *: point of attachment. C18 diacid = O=C(O)CCCCCCCCCCCCCCCCC(=O)*; αMePhe(2-F) = C[C@](N)(Cc1ccccc1F)C(=O)O; γGlu = O=C(O)[C@H](CCC(=O)[*:2])N[*:1]; αMe4Pal = C[C@](N)(Cc1ccncc1)C(=O)O; αMeY = C[C@](N)(Cc1ccc(O)cc1)C(=O)O; 4Pal = N[C@@H](Cc1ccncc1)C(=O)O; αMeL = CC(C)C[C@](C)(N)C(=O)O; Orn = NCCC[C@H](N)C(=O)O; AEEA = NCCOCCOCC(=O)O; Aib = CC(C)(N)C(=O)O
READOUT LABEL: pEC50

SUBSTANCE: H-Y[Aib]QGT[αMePhe(2-F)]TSD[4Pal]SILLD[Orn]K([γGlu-γGlu-C18 diacid])AQ[Aib]AFIE[αMeY]LEEGGPSSGAPPPSGTGE-NH2 [Example 665]
ASSAY TARGET: human GcgR (Homo sapiens)
NUMERIC READOUT: 6.55

SUBSTANCE: H-Y[Aib]QGT[αMePhe(2-F)]TSD[4Pal]SI[αMeL]LD[Orn]K([AEEA-γGlu-C18 diacid])AQ[αMe4Pal]EFI[dE][αMeY]LQEGGPSSGAPPPSGS-NH2 [Example 643]
ASSAY TARGET: human GcgR (Homo sapiens)
NUMERIC READOUT: 5.93

SUBSTANCE: H-Y[Aib]QGTFTSD[4Pal]SQ[αMeL]LDKK([γGlu-γGlu-C18 diacid])AQ[Aib]AFIE[αMeY]LLEGGPSSGAPPPSGSEE-NH2 [Example 945]
ASSAY TARGET: human GcgR (Homo sapiens)
NUMERIC READOUT: 5.62
